# System: Mus musculus
# experiment-description: Ratio of treated to that of untreated tumor-bearing control animals at 15 mg/kg intraperitoneally in CD2F1 mice was determined
# Format: functional
# stated-conditions: route intraperitoneal
recorded-metric: T/C (%)

INSERT INTO measurements (smiles_entry, test_system, experimental_value) VALUES
  ('CNC(=O)OCc1c(COC(=O)NC)c2n(c1C)-c1ccc(OC)cc1CCC2', 'Mus musculus', 144),
  ('COc1ccc2c(c1)CCc1c(COC(=O)NC(C)C)c(COC(=O)NC(C)C)c(C)n1-2', 'Mus musculus', 150),
  ('COc1ccc2c(ccc3c(COC(=O)NC(C)C)c(COC(=O)NC(C)C)c(C)n32)c1', 'Mus musculus', 109),
  ('COc1ccc2c(c1)CCn1cc(COC(=O)NC(C)C)c(COC(=O)NC(C)C)c1-2', 'Mus musculus', 125);

---

The entries below come with measured KE values attached.
# Test system: Mus musculus
# experiment-description: Net log cell kill was determined after injecting 7.5 mg/kg intraperitoneally in CD2F1 mice
# Format: functional
# stated-conditions: route intraperitoneal
recorded-metric: KE

INSERT INTO measurements (smiles_entry, experimental_value) VALUES
  ('Cc1c(COC(=O)NC(C)C)c(COC(=O)NC(C)C)c2n1-c1ccccc1CC2', -1.64),
  ('COc1ccc2c(c1)CCc1c(COC(=O)NC(C)C)c(COC(=O)NC(C)C)c(C)n1-2', -1.31),
  ('COc1ccc2c(c1)CCn1cc(COC(=O)NC(C)C)c(COC(=O)NC(C)C)c1-2', 5.83),
  ('CNC(=O)OCc1c(COC(=O)NC)c2n(c1C)-c1ccc(OC)cc1CCC2', 0.55);

---

Measured T/C values are reported for all entries that follow.
# System: Mus musculus
# experiment-description: Ratio of treated to that of untreated tumor-bearing control animals at 3.75 mg/kg intraperitoneally in CD2F1 mice was determined
# Format: functional
# stated-conditions: route intraperitoneal
recorded-metric: T/C (%)

INSERT INTO assay_data (smiles_entry, recorded_metric, u, experimental_value) VALUES
  ('Cc1c(COC(=O)NC(C)C)c(COC(=O)NC(C)C)c2n1-c1ccccc1CC2', 'T/C', '%', 155),
  ('COc1ccc2c(c1)CCn1cc(COC(=O)NC(C)C)c(COC(=O)NC(C)C)c1-2', 'T/C', '%', 194),
  ('CNC(=O)OCc1c(COC(=O)NC)c2n(c1C)-c1ccc(OC)cc1CCC2', 'T/C', '%', 135),
  ('COc1ccc2c(c1)CCc1c(COC(=O)NC(C)C)c(COC(=O)NC(C)C)c(C)n1-2', 'T/C', '%', 105);

---

Below, each of the molecules is paired with its reported KE value.
# Test system: Mus musculus
# experiment-description: Net log cell kill was determined after injecting 3.75 mg/kg intraperitoneally in CD2F1 mice
# Format: functional
# stated-conditions: route intraperitoneal
recorded-metric: KE

INSERT INTO assay_data (smiles_entry, test_system, experimental_value) VALUES
  ('COc1ccc2c(c1)CCc1c(COC(=O)NC(C)C)c(COC(=O)NC(C)C)c(C)n1-2', 'Mus musculus', -1.45),
  ('COc1ccc2c(c1)CCn1cc(COC(=O)NC(C)C)c(COC(=O)NC(C)C)c1-2', 'Mus musculus', 3.46),
  ('CNC(=O)OCc1c(COC(=O)NC)c2n(c1C)-c1ccc(OC)cc1CCC2', 'Mus musculus', -0.06),
  ('Cc1c(COC(=O)NC(C)C)c(COC(=O)NC(C)C)c2n1-c1ccccc1CC2', 'Mus musculus', 1.47);
